Cited source: ChEMBL document CHEMBL1914334

Molecular target: UniProt P21453
Experiment: Agonist activity at human S1P1 receptor expressed in HEK293 cells assessed as inhibition of forskolin-stimulated cAMP production after 1 hr by HTRF assay
Assay type: functional, cell-based
Kindly apply the following: condition met if EC50 is less than 50 nM, condition not met in every other case.

INSERT INTO assay_data (smiles, assigned_category) VALUES
  ('O=C(O)CCC(=O)N1CCc2cc(-c3noc(-c4cc(C(F)(F)F)cc(C(F)(F)F)c4)n3)ccc21', 'condition met'),
  ('FC(F)(F)c1cc(-c2nc(N3CCc4[nH]cnc4C3)no2)cc(C(F)(F)F)c1', 'condition not met'),
  ('COC(=O)CCCCn1cc2cc(-c3noc(-c4cc(C(F)(F)F)cc(C(F)(F)F)c4)n3)ccc2n1', 'condition not met'),
  ('COc1ccc(-c2nc(-c3ccc4c(c3)CCN4C(=O)CCC(=O)O)no2)cc1OC(F)(F)F', 'condition met'),
  ('O=C(O)CCC(=O)N1CCc2cc(-c3noc(-c4ccc(OC(F)(F)F)cc4)n3)ccc21', 'condition not met'),
  ('O=C(O)CC(=O)N1CCc2cc(-c3noc(-c4cc(C(F)(F)F)cc(C(F)(F)F)c4)n3)ccc21', 'condition not met'),
  ('O=C(O)CCCCn1cc2cc(-c3noc(-c4cc(C(F)(F)F)cc(C(F)(F)F)c4)n3)ccc2n1', 'condition met'),
  ('O=C(O)COc1ccc2c(c1)CCN(c1noc(-c3cc(C(F)(F)F)cc(C(F)(F)F)c3)n1)C2', 'condition not met'),
  ('N#Cc1cc(OC(F)(F)F)cc(-c2nc(-c3ccc4c(c3)CCN4C(=O)CCC(=O)O)no2)c1', 'condition met'),
  ('COc1ccc(-c2nc(-c3ccc4c(c3)CCN4C(=O)CCC(=O)O)no2)cc1C', 'condition met'),
  ('COc1cc(C#N)cc(-c2nc(-c3ccc4c(c3)CCN4C(=O)CCC(=O)O)no2)c1', 'condition met'),
  ('CCc1ccc(-c2nc(-c3ccc4c(c3)CCN4C(=O)CCC(=O)O)no2)cc1S(C)(=O)=O', 'condition met');

----------
Molecular target: Sphingosine 1-phosphate receptor 3 (Homo sapiens)
Sequence (Q99500 whole entry): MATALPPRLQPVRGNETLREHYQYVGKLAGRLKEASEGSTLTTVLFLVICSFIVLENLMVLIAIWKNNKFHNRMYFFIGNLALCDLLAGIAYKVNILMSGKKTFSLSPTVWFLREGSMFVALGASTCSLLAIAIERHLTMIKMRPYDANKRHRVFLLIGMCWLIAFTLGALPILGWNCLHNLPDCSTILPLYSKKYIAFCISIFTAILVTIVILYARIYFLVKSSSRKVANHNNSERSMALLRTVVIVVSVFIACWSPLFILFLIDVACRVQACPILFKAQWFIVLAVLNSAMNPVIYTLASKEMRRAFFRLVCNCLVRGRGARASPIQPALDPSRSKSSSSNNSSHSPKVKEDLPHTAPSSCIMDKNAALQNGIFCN
Test: Agonist activity at recombinant human S1P3 receptor expressed in HEK293 cells after 2 hrs by beta-arrestin assay
pEC50: −log10 of the molar value.
// pEC50 lookup, one value per entry
readout_kind: pEC50

INSERT INTO results (smiles, system_name, readout_kind, reading_qualifier, result) VALUES
  ('N#Cc1cc(OC(F)(F)F)cc(-c2nc(-c3ccc4c(c3)CCN4C(=O)CCC(=O)O)no2)c1', 'Sphingosine 1-phosphate receptor 3 (Homo sapiens)', 'pEC50', '<', 4.00),
  ('O=C(O)CCC(=O)N1CCc2cc(-c3noc(-c4cc(C(F)(F)F)cc(C(F)(F)F)c4)n3)ccc21', 'Sphingosine 1-phosphate receptor 3 (Homo sapiens)', 'pEC50', '=', 5.51);

----------
Assay: Cmax in Sprague-Dawley rat at 1 mg/kg, iv and 1.5 mg/kg, po
Format: ADME, organism-based
Conditions: in vivo
readout_kind: Cmax (ng/mL)

INSERT INTO measurements (smiles, unit_name, result) VALUES
  ('O=C(O)CCC(=O)N1CCc2cc(-c3noc(-c4cc(C(F)(F)F)cc(C(F)(F)F)c4)n3)ccc21', 'ng/mL', 1740);

----------
Assay: Half life in Sprague-Dawley rat at 2 mg/kg, iv and 3 mg/kg, po
Type: ADME, organism-based
Settings: in vivo
readout_kind: half-life

INSERT INTO results (smiles, result) VALUES
  ('N#Cc1cc(OC(F)(F)F)cc(-c2nc(-c3ccc4c(c3)CCN4C(=O)CCC(=O)O)no2)c1', '2.9 h');

----------
Assay: Oral bioavailability in Sprague-Dawley rat at 1.5 mg/kg
Assay type: ADME, organism-based
Details: in vivo
readout_kind: bioavailability (%)

INSERT INTO results (smiles, unit_name, result) VALUES
  ('O=C(O)CCC(=O)N1CCc2cc(-c3noc(-c4cc(C(F)(F)F)cc(C(F)(F)F)c4)n3)ccc21', '%', 50.2);

----------
Target: Sphingosine 1-phosphate receptor 1 (Homo sapiens, UniProt P21453)
Sequence (P21453 whole entry): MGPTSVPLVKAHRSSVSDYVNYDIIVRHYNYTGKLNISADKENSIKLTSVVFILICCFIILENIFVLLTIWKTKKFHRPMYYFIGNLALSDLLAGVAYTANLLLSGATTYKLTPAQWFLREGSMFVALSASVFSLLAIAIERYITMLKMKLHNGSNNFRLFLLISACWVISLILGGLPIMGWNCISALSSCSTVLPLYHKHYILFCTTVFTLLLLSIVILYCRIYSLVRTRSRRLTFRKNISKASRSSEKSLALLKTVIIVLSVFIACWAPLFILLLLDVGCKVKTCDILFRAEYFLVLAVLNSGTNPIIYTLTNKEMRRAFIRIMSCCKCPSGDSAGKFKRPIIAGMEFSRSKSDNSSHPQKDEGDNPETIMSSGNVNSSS
Assay: Agonist activity at recombinant human S1P1 receptor expressed in HEK293 cells after 2 hrs by beta-arrestin assay
Assay type: functional, cell-based
pEC50: −log10 of the molar value.
readout_kind: pEC50

INSERT INTO assay_data (smiles, system_name, result) VALUES
  ('CC(C)Oc1ccc(-c2nc(-c3ccc4c(c3)CCN4C(=O)CCC(=O)O)no2)cc1C#N', 'Sphingosine 1-phosphate receptor 1 (Homo sapiens, UniProt P21453)', 8.17),
  ('O=C(O)CCC(=O)N1CCc2cc(-c3noc(-c4cc(C(F)(F)F)cc(C(F)(F)F)c4)n3)ccc21', 'Sphingosine 1-phosphate receptor 1 (Homo sapiens, UniProt P21453)', 7.41),
  ('N#Cc1cc(OC(F)(F)F)cc(-c2nc(-c3ccc4c(c3)CCN4C(=O)CCC(=O)O)no2)c1', 'Sphingosine 1-phosphate receptor 1 (Homo sapiens, UniProt P21453)', 7.51);

----------
Test: Protein binding in human
Assay type: ADME, organism-based
Settings: in vivo, read-out: PB (converted)
readout_kind: fraction unbound

INSERT INTO assay_data (smiles, result) VALUES
  ('N#Cc1cc(OC(F)(F)F)cc(-c2nc(-c3ccc4c(c3)CCN4C(=O)CCC(=O)O)no2)c1', 0.003),
  ('O=C(O)CCC(=O)N1CCc2cc(-c3noc(-c4cc(C(F)(F)F)cc(C(F)(F)F)c4)n3)ccc21', 0.006);

----------
Assay: Half life in human
Assay type: ADME, organism-based
Conditions: in vivo
readout_kind: half-life (days)

INSERT INTO measurements (compound, result) VALUES
  ('CCCCCCCCc1ccc(CCC(N)(CO)CO)cc1.Cl [FINGOLIMOD HYDROCHLORIDE]', 6);

----------
Test: Tmax in Sprague-Dawley rat at 2 mg/kg, iv and 3 mg/kg, po
Type: ADME, organism-based
Settings: in vivo
readout_kind: Tmax (h)

INSERT INTO assay_data (smiles, readout_kind, result) VALUES
  ('N#Cc1cc(OC(F)(F)F)cc(-c2nc(-c3ccc4c(c3)CCN4C(=O)CCC(=O)O)no2)c1', 'Tmax', 2);

----------
Assay: Aqueous solubility of the compound
Type: physicochemical
Details: buffer
readout_kind: solubility

INSERT INTO measurements (smiles, result) VALUES
  ('N[C@@H](CC(=O)N1CCc2cc(-c3noc(-c4cc(C(F)(F)F)cc(C(F)(F)F)c4)n3)ccc21)C(=O)O', '< 10 µg/mL');

----------
Target: UniProt P11712
Sequence (P11712 whole entry): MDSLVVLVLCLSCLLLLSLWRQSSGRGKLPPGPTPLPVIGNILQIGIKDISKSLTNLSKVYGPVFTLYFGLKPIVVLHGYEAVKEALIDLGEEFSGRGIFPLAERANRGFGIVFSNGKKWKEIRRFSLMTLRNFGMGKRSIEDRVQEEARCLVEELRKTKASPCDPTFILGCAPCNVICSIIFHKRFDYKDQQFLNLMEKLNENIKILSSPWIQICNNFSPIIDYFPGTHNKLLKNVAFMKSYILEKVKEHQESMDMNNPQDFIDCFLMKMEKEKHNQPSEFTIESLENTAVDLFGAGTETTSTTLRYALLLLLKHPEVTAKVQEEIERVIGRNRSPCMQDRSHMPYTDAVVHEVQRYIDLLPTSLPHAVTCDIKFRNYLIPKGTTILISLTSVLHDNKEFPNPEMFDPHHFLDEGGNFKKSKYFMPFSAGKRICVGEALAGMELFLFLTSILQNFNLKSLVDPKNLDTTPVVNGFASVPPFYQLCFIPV
pIC50: −log10 of the molar value.
readout_kind: pIC50

INSERT INTO assay_data (smiles, system_name, reading_qualifier, result) VALUES
  ('N#Cc1cc(OC(F)(F)F)cc(-c2nc(-c3ccc4c(c3)CCN4C(=O)CCC(=O)O)no2)c1', 'UniProt P11712', '<', 4.30),
  ('O=C(O)CCC(=O)N1CCc2cc(-c3noc(-c4cc(C(F)(F)F)cc(C(F)(F)F)c4)n3)ccc21', 'UniProt P11712', '=', 4.46);

----------
Assay: Protein binding in rat
Assay type: ADME, organism-based
Conditions: in vivo, read-out: PB (converted)
readout_kind: fraction unbound

INSERT INTO assay_data (smiles, readout_kind, result) VALUES
  ('N#Cc1cc(OC(F)(F)F)cc(-c2nc(-c3ccc4c(c3)CCN4C(=O)CCC(=O)O)no2)c1', 'fraction unbound', 0.007);

----------
Test: Half life in Sprague-Dawley rat at 1 mg/kg, iv and 1.5 mg/kg, po
Type: ADME, organism-based
Details: in vivo
readout_kind: half-life (h)

INSERT INTO results (smiles, result) VALUES
  ('O=C(O)CCC(=O)N1CCc2cc(-c3noc(-c4cc(C(F)(F)F)cc(C(F)(F)F)c4)n3)ccc21', 8.5);

----------
Experiment: Volume of distribution at steady state in Sprague-Dawley rat at 1 mg/kg, iv and 1.5 mg/kg, po
Format: ADME, organism-based
Conditions: in vivo, read-out: Vdss
readout_kind: Vd

INSERT INTO results (smiles, result) VALUES
  ('O=C(O)CCC(=O)N1CCc2cc(-c3noc(-c4cc(C(F)(F)F)cc(C(F)(F)F)c4)n3)ccc21', '0.564 L/kg');
